testSystem: CREBBP bromodomain (His-CREBBP(1081-1197)) (Homo sapiens (Human))
Sequence (Q92793 1081-1197): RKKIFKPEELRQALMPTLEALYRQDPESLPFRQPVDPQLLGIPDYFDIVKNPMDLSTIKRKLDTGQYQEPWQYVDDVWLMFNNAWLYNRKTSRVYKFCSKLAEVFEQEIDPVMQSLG
protocolNotes: AlphaScreen in-vitro binding assay for CREBBP
measurementConditions: single determination or n ≧ 2 independent determinations, read-out: Biochemical IC50 CREBBP
measuredAttribute: IC50 (µM)

Examples with answers:
> print(dat)
                                   compound  recordednumber
1  Cc1cc(N2C(=O)c3nc(-c4ccc[nH]4)n(C(C)C)c3C2c2ccc(Cl)cc2)cn(C)c1=O (stereo not shown)               1
2  CCN1CC=C(c2nc3c(n2C(C)C)C(c2ccc(Cl)cc2)N(c2cc(C)c4nnc(C)n4c2)C3=O)CC1 (stereo not shown)               5

I: Cc1cc(N2C(=O)c3nc(C4=CCOCC4)n(C(C)C)c3C2c2ccc(Cl)cc2)cc2c1nnn2C (stereo not shown)
II: COc1ncccc1-c1nc2c([nH]1)[C@@H](c1ccc(Cl)cc1)N(c1cc(C)c3nnn(C)c3n1)C2=O
III: Cc1cc(N2C(=O)c3nc(C4=CCOC4)n(C(C)C)c3C2c2ccc(Cl)cc2)cn2c(CF)nnc12 (stereo not shown)
IV: Cc1cc(N2C(=O)c3nc(C4=CCOCC4)[nH]c3C2c2ccc(Cl)cc2)cn(C)c1=O (stereo not shown)
V: Cc1cc(N2C(=O)c3nc(C4=CCCN(C)C4)n(C(C)C)c3C2c2ccc(Cl)cc2)cn2c(C)nnc12 (stereo not shown)
Challenge: Task field, ranking: reported IC50, descending order. Please express your ranking as an ordered list of the labels.
Response given: II, V, III, I, IV
(II: 33.1 µM, V: 8.9 µM, III: 5.8 µM, I: 3.4 µM, IV: 1.68 µM)

* * *

testSystem: CREBBP bromodomain (His-CREBBP(1081-1197)) (Homo sapiens (Human))
protocolNotes: AlphaScreen in-vitro binding assay for CREBBP
measurementConditions: single determination or n ≧ 2 independent determinations, read-out: Biochemical IC50 CREBBP
pIC50: −log10 of the molar value.
measuredAttribute: pIC50

Examples with answers:
> print(dat)
                                   compound  measuredattribute  recordednumber
1  Cc1cc(N2C(=O)c3nc(C4=CC(C)(C)NC(C)(C)C4)n(C(C)C)c3C2c2ccc(Cl)cc2)cn2c(CF)nnc12 (stereo not shown) [Example 90]              pIC50            4.88
2  COc1ncccc1-c1nc2c(n1C(C)C)C(c1ccc(Cl)cc1)N(c1cc(C)c3nnc(CF)n3c1)C2=O (stereo not shown) [Example 89]              pIC50            5.08
3  Cc1cc(N2C(=O)c3nc(C4CCOC4)n(C(C)C)c3[C@H]2c2ccc(Cl)cc2)nn2c(C)nnc12 (stereo partly shown) [Example 171]              pIC50            4.75
4  CCOC(=O)N1CC=C(c2nc3c(n2C(C)C)C(c2ccc(Cl)cc2)N(c2cc(C)c4nnc(C)n4c2)C3=O)CC1 (stereo not shown) [Example 70]              pIC50            5.18

a: Cc1cc(N2C(=O)c3nc(C4=CCOCC4)n(C(C)C)c3C2c2ccc(Cl)cc2)cn2c(C)nnc12 (stereo not shown) [Example 14]
b: Cc1cc(N2C(=O)c3nc(C4CCOCC4)n(C(C)C)c3C2c2ccc(Cl)cc2)cc2c1nnn2C (stereo not shown) [Example 80]
Challenge: # query: argmin of pIC50 over a and b Identify your pick by its label.
Response given: a
(a: 5.64, b: 5.84)

P: Cc1cc(N2C(=O)c3nc(C4=CCOC4)n(C(C)C)c3[C@H]2c2ccc(Cl)cc2)cn2c(C)nnc12 [Example 48]
Q: COc1ccc(-c2nc3c([nH]2)C(c2ccc(Cl)cc2)N(c2cc(OC)c4nnc(C)n4c2)C3=O)cn1 (stereo not shown) [Example 125]
R: COc1ncc(-c2nc3c(n2C(C)C)C(c2ccc(Cl)cc2)N(c2cc(C)c4nnc(C)n4c2)C3=O)c(OC)n1 (stereo not shown) [Example 10]
S: COc1ccc(-c2nc3c(n2C)C(c2ccc(Cl)cc2)N(c2cc(C)c(=O)n(C)c2)C3=O)cn1 (stereo not shown) [Example 8]
T: Cc1cc(N2C(=O)c3nc(C4CCOCC4)n(C(C)C)c3[C@H]2c2ccc(Cl)cc2)cn2c(C)nnc12 [Example 87]
Challenge: # rank by pIC50, ascending (min first) Please express your ranking as an ordered list of the labels.
Response given: Q, R, P, T, S
(Q: 4.46, R: 5.20, P: 5.52, T: 5.74, S: 6.01)

I: Cc1cc(N2C(=O)c3[nH]c(C4CC4)nc3C2c2ccc(Cl)cc2)cn(C)c1=O (stereo not shown) [Example 46]
II: COc1ccc(-c2nc3c(n2C(C)C)[C@@H](c2ccc(Cl)cc2)N(c2cc(OC)c4nnn(C)c4c2)C3=O)cn1 [Example 114]
Challenge: # query: argmin of pIC50 over I and II Identify your pick by its label.
Response given: II
